Hey, just so you know, these numbers are from paper PMC7733455.

# System: 293T cells
# Measurement protocol: In vitro cytotoxicity analysis (CellTiter-Glo), 293T
# Test context: read-out: Cytotoxicity EC50, 293T; 72 h, CellTiter-Glo
pEC50: −log10 of the molar value.
Experimental readout: pEC50

| Molecule | Experimental result |
| --- | --- |
| Cl.O=C(NO)c1cnc(N2CCC3(CCN(Cc4cccc5ccccc45)C3)C2)nc1 (stereo not shown) | 5.91 |
| Cl.Cn1cc(CN2CCC3(CCN(c4ncc(C(=O)NO)cn4)C3)C2)c2ccc(F)cc21 (stereo not shown) | 6.40 |
| Cl.Cn1cc(CN2CCC3(CCN(c4ncc(C(=O)NO)cn4)C3)C2)c2ccc(Cl)cc21 (stereo not shown) | 5.78 |
| Cl.O=C(NO)c1cnc(N2CCC3(CCN(Cc4ccnc5ccccc45)C3)C2)nc1 (stereo not shown) | 5.73 |
